tested-system: Tyrosyl-tRNA synthetase, putative (Trypanosoma cruzi (strain CL Brener)) (UniProt Q4DSP6)
Sequence (Q4DSP6 as listed by the source): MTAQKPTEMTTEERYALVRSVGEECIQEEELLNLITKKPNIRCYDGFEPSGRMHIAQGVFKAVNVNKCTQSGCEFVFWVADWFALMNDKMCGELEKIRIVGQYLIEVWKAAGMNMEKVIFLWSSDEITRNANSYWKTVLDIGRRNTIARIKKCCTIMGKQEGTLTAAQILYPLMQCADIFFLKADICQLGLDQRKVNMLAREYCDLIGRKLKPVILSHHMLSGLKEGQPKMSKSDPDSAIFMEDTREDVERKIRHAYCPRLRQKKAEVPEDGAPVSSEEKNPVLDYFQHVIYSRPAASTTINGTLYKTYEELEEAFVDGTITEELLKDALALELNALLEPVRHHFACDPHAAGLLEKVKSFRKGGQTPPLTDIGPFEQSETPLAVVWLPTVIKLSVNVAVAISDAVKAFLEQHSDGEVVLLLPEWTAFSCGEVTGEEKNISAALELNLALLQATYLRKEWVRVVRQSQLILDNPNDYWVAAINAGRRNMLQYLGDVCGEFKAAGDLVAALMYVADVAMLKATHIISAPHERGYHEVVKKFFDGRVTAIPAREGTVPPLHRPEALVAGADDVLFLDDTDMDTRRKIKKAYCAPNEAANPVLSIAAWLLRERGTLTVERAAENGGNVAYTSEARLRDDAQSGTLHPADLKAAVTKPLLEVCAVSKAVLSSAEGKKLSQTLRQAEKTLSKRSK
method: Trypanosoma cruzi tyrosyl tRNA synthetase (TcYRS) SOP
Format: functional
Parameters: scale not given: direction of the effect not stated beside the values
particulars: 30 µM
quantity-kind: Percent Effect (%)

[
  {
    "compound": "Cc1cccc(CO[C@@H]2CC[C@H]3[C@H]2OCCN3Cc2ccsc2)n1",
    "quantity-kind": "Percent Effect",
    "test-result": 15
  },
  {
    "compound": "COc1cccc([C@@H]2CCN(Cc3ccc4ccccc4n3)C[C@H]2O)c1",
    "quantity-kind": "Percent Effect",
    "test-result": 19.5
  },
  {
    "compound": "NC[C@H]1[C@H]2CN(Cc3ccccc3)C[C@@H]12",
    "quantity-kind": "Percent Effect",
    "test-result": 15
  },
  {
    "compound": "NCC1(c2cccc(C(F)(F)F)c2)CCOCC1",
    "quantity-kind": "Percent Effect",
    "test-result": 18.3
  },
  {
    "compound": "CN1CCCC(Cc2cncc(Br)c2)CC1 (configuration not stated)",
    "quantity-kind": "Percent Effect",
    "test-result": 22.1
  },
  {
    "compound": "c1ccc(CO[C@H]2CO[C@@]3(CCN(Cc4ccoc4)C3)C2)nc1",
    "quantity-kind": "Percent Effect",
    "test-result": 12.8
  },
  {
    "compound": "CCCN1C(=O)CC2(CCCNC2)C1=O (configuration not stated)",
    "quantity-kind": "Percent Effect",
    "test-result": 7.5
  },
  {
    "compound": "CC(C)N1CCc2c(CN(C)Cc3ccco3)cncc2C1",
    "quantity-kind": "Percent Effect",
    "test-result": -7.5
  },
  {
    "compound": "CC(C)(C)n1cc(C(=O)NCCCn2ccnc2)c2cccnc21",
    "quantity-kind": "Percent Effect",
    "test-result": 15
  },
  {
    "compound": "O=C(Cn1ccc2c(Cl)cccc21)N1CCC2(CC1)OCCO2",
    "quantity-kind": "Percent Effect",
    "test-result": 19.5
  },
  {
    "compound": "O=C([C@H]1C[C@H]2OCC[C@H]2N(Cc2cccnc2)C1)N1CCCO1",
    "quantity-kind": "Percent Effect",
    "test-result": 15.4
  },
  {
    "compound": "COCCNC(=O)c1cn(C(C)(C)C)c2ncccc12",
    "quantity-kind": "Percent Effect",
    "test-result": 10
  }
]

The reported measurements were obtained from ChEMBL document CHEMBL3988442.
